Listing of entries alongside the reported CC50.
Assay: Cytotoxicity against PBMC
Assay type: cell-based
Details: human

Take a look at these entries with their results.
Oc1ccc(CN2CCN(Cc3ccc(O)c4ncccc34)CC2)c2cccnc12	> 10 µM
Oc1ccc(CN2CCCNCCNCCCNCC2)c2cccnc12	> 10 µM
Oc1ccc(CCl)c2cccnc12	> 10 µM
c1cc(CN2CCCNCCNCCCNCC2)cc(CN2CCCNCCNCCCNCC2)c1	> 10 µM
Oc1ccc(CNCCCNCc2ccc(O)c3ncccc23)c2cccnc12	> 10 µM
Oc1c(I)cc(Cl)c2cccnc12	2 µM

Task: Would you mind telling me what CC50 value was observed for `Oc1ccc(CN2CCCN(Cc3ccc(O)c4ncccc34)CCNCCCNCC2)c2cccnc12` ?
Result: 8 µM

Task: Would you mind telling me what CC50 value was observed for `c1cc(CN2CCCNCCNCCCNCC2)ccc1CN1CCCNCCNCCCNCC1` ?
Result: > 10 µM
